All figures here come from the supplement of paper PMC10037445.

# Test system: RAW-Dual
# assay.method.text: NF-kB SEAP reporter activity, fold change vs agonist alone; cytotoxicity flag (confluency mask): cytotoxic (confluency <70% of control); higher = enhanced NF-kB activity
# cond: agonist: Pam3CSK4 (TLR2/1) 0.1 ug/mL
The full ranking holds about 2,900 compounds; the median of “NF-kB SEAP reporter activity, fold change vs agonist alone” is about 0.99, and the highest 2% start at about 2.6. Shown is part of a subset that was picked to be rich in the highest values.
reported.endpoint: NF-kB SEAP reporter activity
Just the number, please, no unit attached.

Exercise: Give recorded NF-kB SEAP reporter activity. CCC1(O)C(=O)OCc2c1cc1n(c2=O)Cc2cc3cc(O)ccc3nc2-1 (stereo not given) (library stock concentration (final ~1000-fold dilution): 10 mM)
Solution: 1.5

Exercise: Give recorded NF-kB SEAP reporter activity. CCC1(O)C(=O)OCc2c1cc1n(c2=O)Cc2cc3c(CN(C)C)c(O)ccc3nc2-1.Cl (stereo not given) (library stock concentration (final ~1000-fold dilution): 10 mM)
Solution: 1.35

Exercise: Give recorded NF-kB SEAP reporter activity. CC(C)(C)c1nc(-c2ccc(NC(=O)Nc3cccc(C(F)(F)F)c3)c3ccccc23)c2c(N)nccn12 (library stock concentration (final ~1000-fold dilution): 10 mM)
Solution: 0.136

Exercise: Give recorded NF-kB SEAP reporter activity. CN(C)C/C=C/C(=O)Nc1ccc(C(=O)Nc2cccc(Nc3ncc(Cl)c(-c4c[nH]c5ccccc45)n3)c2)cc1.Cl.Cl (library stock concentration (final ~1000-fold dilution): 10 mM)
Solution: 0.176

Exercise: Give recorded NF-kB SEAP reporter activity. CCC(=C(c1ccccc1)c1ccc(OCCN(C)C)cc1)c1ccccc1 (library stock concentration (final ~1000-fold dilution): 10 mM)
Solution: 0.525

---

# Tested on: RAW-Dual
# assay.method.text: NF-kB SEAP reporter activity, fold change vs agonist alone; cytotoxicity flag (confluency mask): not cytotoxic; higher = enhanced NF-kB activity
# cond: agonist: ODN 1826 (TLR9) 0.5 ug/mL
Over roughly 2,900 compounds, “NF-kB SEAP reporter activity, fold change vs agonist alone” has its median near 0.99; the highest 2% begin near 2.6. Shown is part of a subset that was picked to be rich in the highest values.
reported.endpoint: NF-kB SEAP reporter activity

Exercise: Give recorded NF-kB SEAP reporter activity. CC(C)CC(NC(=O)C(Cc1ccccc1)CC(O)C(Cc1ccccc1)NC(=O)OC(C)(C)C)C(=O)NC(Cc1ccccc1)C(N)=O (stereo not given) (library stock concentration (final ~1000-fold dilution): 10 mM)
Solution: 0.998

Exercise: Give recorded NF-kB SEAP reporter activity. Cc1nc[nH]c1CN1CCc2c(c3ccccc3n2C)C1=O.Cl (library stock concentration (final ~1000-fold dilution): 2 mM water)
Solution: 1.09

Exercise: Give recorded NF-kB SEAP reporter activity. O=c1cc(-c2ccc(O)cc2)oc2c(C3OCC(O)C(O)C3O)c(O)c(C3OC(CO)C(O)C(O)C3O)c(O)c12 (stereo not given) (library stock concentration (final ~1000-fold dilution): 10 mM)
Solution: 1.03

Exercise: Give recorded NF-kB SEAP reporter activity. Cl.Cl.OC(CN1CCN(c2cccc(Cl)c2)CC1)C(c1ccccc1)c1ccccc1 (stereo not given) (library stock concentration (final ~1000-fold dilution): 10 mM)
Solution: 1.02

Exercise: Give recorded NF-kB SEAP reporter activity. Cc1cn(C2CC(O)C(CO)O2)c(=O)[nH]c1=O (stereo not given) (library stock concentration (final ~1000-fold dilution): 10 mM)
Solution: 1.03

Exercise: Give recorded NF-kB SEAP reporter activity. COc1cc(OC)cc(-c2cc3cnc(N)nc3nc2NC(=O)NC(C)(C)C)c1 (library stock concentration (final ~1000-fold dilution): 10 mM)
Solution: 1.02

Exercise: Give recorded NF-kB SEAP reporter activity. COC(=O)NC(C(=O)NC(Cc1ccccc1)C(O)CN(Cc1ccc(-c2ccccn2)cc1)NC(=O)C(NC(=O)OC)C(C)(C)C)C(C)(C)C.O=S(=O)(O)O (stereo not given) (library stock concentration (final ~1000-fold dilution): 10 mM)
Solution: 2.67

Exercise: Give recorded NF-kB SEAP reporter activity. CN(c1ncccc1CNc1nc(Nc2ccc3c(c2)CC(=O)N3)ncc1C(F)(F)F)S(C)(=O)=O.O=S(=O)(O)c1ccccc1 (library stock concentration (final ~1000-fold dilution): 10 mM)
Solution: 0.982

Exercise: Give recorded NF-kB SEAP reporter activity. COc1ccc(CNC(=O)CCl)cc1OC (library stock concentration (final ~1000-fold dilution): 10 mM)
Solution: 0.674

Exercise: Give recorded NF-kB SEAP reporter activity. C/C1=C/CC[C@@]2(C)O[C@@H]2[C@H]2OC(=O)[C@H](CN(C)C)[C@@H]2CC1 (library stock concentration (final ~1000-fold dilution): 10 mM)
Solution: 0.185

---

# Test system: RAW-Dual
# assay.method.text: NF-kB SEAP reporter activity, fold change vs agonist alone; cytotoxicity flag (confluency mask): not cytotoxic; higher = enhanced NF-kB activity
# cond: agonist: Pam2CSK4 (TLR2/6) 0.1 ug/mL
Over roughly 2,900 compounds, “NF-kB SEAP reporter activity, fold change vs agonist alone” has its median near 0.99; the highest 2% begin near 2.6. For the sample, the highest values were picked, then their nearest neighbours and some compounds at random.
reported.endpoint: NF-kB SEAP reporter activity
Just the number, please, no unit attached.

Exercise: Give recorded NF-kB SEAP reporter activity. CCCC(=O)Nc1ccc(OCC(O)CNC(C)C)c(C(C)=O)c1.Cl (stereo not given) (library stock concentration (final ~1000-fold dilution): 10 mM)
Solution: 1.11

Exercise: Give recorded NF-kB SEAP reporter activity. CC(C)C(NC(=O)C(CC(=O)O)NC(=O)C(CCCCN)NC(=O)C(N)CCCNC(=N)N)C(=O)NC(Cc1ccc(O)cc1)C(=O)O (stereo not given) (library stock concentration (final ~1000-fold dilution): 10 mM)
Solution: 1.19

Exercise: Give recorded NF-kB SEAP reporter activity. CCN(CC)CC#CCOC(=O)C(O)(c1ccccc1)C1CCCCC1.Cl (stereo not given) (library stock concentration (final ~1000-fold dilution): 10 mM)
Solution: 0.963

Exercise: Give recorded NF-kB SEAP reporter activity. COc1ccccc1-c1cc(Nc2cccc(CS(N)(=O)=O)c2)ncn1 (library stock concentration (final ~1000-fold dilution): 10 mM)
Solution: 0.783

Exercise: Give recorded NF-kB SEAP reporter activity. CCC(=O)OC(OP(=O)(CCCCc1ccccc1)CC(=O)N1CC(C2CCCCC2)CC1C(=O)O)C(C)C (stereo not given) (library stock concentration (final ~1000-fold dilution): 10 mM water)
Solution: 1.01

---

# Test system: RAW-Dual
# assay.method.text: NF-kB SEAP reporter activity, fold change vs agonist alone; higher = enhanced NF-kB activity
# cond: library stock concentration (final ~1000-fold dilution): 10 mM water; cytotoxicity flag (confluency mask): not cytotoxic; agonist: MPLA (TLR4) […]
Whole data set: some 2,900 compounds, median “NF-kB SEAP reporter activity, fold change vs agonist alone” near 0.99, cut for the highest 2% near 2.6. For the sample, the highest values were picked, then their nearest neighbours and some compounds at random.
Hi there, I'd appreciate the recorded NF-kB SEAP reporter activity for every entry that follows.
Just the number, please, no unit attached.

Exercise: Give recorded NF-kB SEAP reporter activity. Cl.c1ccc2c(-c3cnn4cc(-c5ccc(N6CCNCC6)cc5)cnc34)ccnc2c1
Solution: 0.571

Exercise: Give recorded NF-kB SEAP reporter activity. CC(O)C1C(=O)N2C(C(=O)O)=C(SCCNC=N)CC12.O (stereo not given)
Solution: 1.02

Exercise: Give recorded NF-kB SEAP reporter activity. N=C(N)NCCCC(N)C(=O)NCC(=O)NC(CC(=O)O)C(=O)O (stereo not given)
Solution: 1.06

Exercise: Give recorded NF-kB SEAP reporter activity. CN1CCOC(c2ccccc2)c2ccccc2C1.Cl (stereo not given)
Solution: 1.03

Exercise: Give recorded NF-kB SEAP reporter activity. Nc1ccn(C2OC(CO)C(O)C2O)c(=O)n1 (stereo not given)
Solution: 1.33

---

Hi there, I'd appreciate the recorded NF-kB SEAP reporter activity for every entry that follows.
# Tested on: RAW-Dual
# assay.method.text: NF-kB SEAP reporter activity, fold change vs agonist alone; higher = enhanced NF-kB activity
# cond: library stock concentration (final ~1000-fold dilution): 10 mM; cytotoxicity flag (confluency mask): not cytotoxic; agonist: MPLA (TLR4) […]
The full ranking holds about 2,900 compounds; the median of “NF-kB SEAP reporter activity, fold change vs agonist alone” is about 0.99, and the highest 2% start at about 2.6. Many of the other results were omitted from the sample, so the highest values are more common in it than they were.
Just the number, please, no unit attached.

Exercise: Give recorded NF-kB SEAP reporter activity. Nc1ncn(C2CC(O)C(CO)O2)c(=O)n1 (stereo not given)
Solution: 1.38

Exercise: Give recorded NF-kB SEAP reporter activity. CC1CN(CC(Cc2ccccc2)C(=O)NCC(=O)O)CCC1(C)c1cccc(O)c1 (stereo not given)
Solution: 1.01

Exercise: Give recorded NF-kB SEAP reporter activity. Cc1n[nH]c2ncc(C(=O)N3CCCC3c3ccc(Cl)cc3)cc12 (stereo not given)
Solution: 1.77

Exercise: Give recorded NF-kB SEAP reporter activity. OCc1ccccc1OC1OC(CO)C(O)C(O)C1O (stereo not given)
Solution: 1.04

Exercise: Give recorded NF-kB SEAP reporter activity. O=C(NCCO)c1cccc(-c2cc(Nc3ccc(OC(F)(F)F)cc3)ncn2)c1
Solution: 1.23

Exercise: Give recorded NF-kB SEAP reporter activity. CC(C)CCNC(=O)C(CC(C)C)NC(=O)C1OC1C(=O)O (stereo not given)
Solution: 1.17

Exercise: Give recorded NF-kB SEAP reporter activity. FC(F)c1nc2ccccc2n1-c1nc(N2CCOCC2)nc(N2CCOCC2)n1
Solution: 1.32

Exercise: Give recorded NF-kB SEAP reporter activity. CCC(CC)(NC(=O)C(C)C)C(=O)NC(CCCNC(=N)N)C(=O)NC1(C(=O)NC(c2ccc(F)cc2)c2ccc(F)cc2)CCCC1 (stereo not given)
Solution: 0.867

Exercise: Give recorded NF-kB SEAP reporter activity. COC(=O)NC(C(=O)N1CCCC1c1ncc(-c2ccc(-c3ccc(-c4cnc(C5CCCN5C(=O)C(NC(=O)OC)C(C)C)[nH]4)cc3)cc2)[nH]1)C(C)C.Cl.Cl (stereo not given)
Solution: 1.76

Exercise: Give recorded NF-kB SEAP reporter activity. CC(C)c1c(-c2ccccc2)[nH]c2c(C#N)cnn2c1=O.Cl
Solution: 0.99

Exercise: Give recorded NF-kB SEAP reporter activity. CC1=NN(c2ccc(C)c(C)c2)C(=O)/C1=N\Nc1cccc(-c2cccc(C(=O)O)c2)c1O.NCCO.NCCO
Solution: 1.64

Exercise: Give recorded NF-kB SEAP reporter activity. O=C(Nc1ccc(OC(F)(F)F)cc1)c1sccc1NCc1ccnc2ccccc12
Solution: 2.25

Exercise: Give recorded NF-kB SEAP reporter activity. Cc1oncc1C(=O)Nc1ccc(C(F)(F)F)cc1
Solution: 1.15

Exercise: Give recorded NF-kB SEAP reporter activity. CNC(=O)c1cc(Oc2ccc(NC(=O)Nc3ccc(Cl)c(C(F)(F)F)c3)c(F)c2)ccn1.O
Solution: 1.58

Exercise: Give recorded NF-kB SEAP reporter activity. CCCCCCOC(=O)c1cc(O)c(=O)c2c(O)c(O)c(OC)cc2c1
Solution: 0.857

Exercise: Give recorded NF-kB SEAP reporter activity. Nc1cc(C(F)(F)F)c(-c2cc(N3CCOCC3)nc(N3CCOCC3)n2)cn1
Solution: 1.63

Exercise: Give recorded NF-kB SEAP reporter activity. NC(CSC(c1ccccc1)(c1ccccc1)c1ccccc1)C(=O)O (stereo not given)
Solution: 0.976

Exercise: Give recorded NF-kB SEAP reporter activity. Cc1cccc(C)c1OCC(=O)NC(Cc1ccccc1)C(O)CC(Cc1ccccc1)NC(=O)C(C(C)C)N1CCCNC1=O (stereo not given)
Solution: 2.06

Exercise: Give recorded NF-kB SEAP reporter activity. Nc1cc(C(F)(F)F)c(-c2nc(N3CCOCC3)nc(N3CCOCC3)n2)cn1
Solution: 1.11

Exercise: Give recorded NF-kB SEAP reporter activity. COc1ccc(CCN(C)CCCC(C#N)(c2ccc(OC)c(OC)c2)C(C)C)cc1OC.Cl (stereo not given)
Solution: 1.03
